From: PubChem BioAssay AID435022

PROTOCOL_TEXT: inhibitors of PMA/ionomycin-induced NF-kB reporter, 697 cells, primary screen, B-cell NF-kB inhibitor project, cell-based, luminescence, uHTS (AID 435022)
STATED_CONDITIONS: 697 B-cell NF-kB luciferase reporter, 16 h, at 4 µM, stronger effect = higher value
The whole screen tested about 330,000 compounds, of which about 1,100 (0.33%) were called active. The list comes from a sample in which actives are over-represented; it also holds close analogues and randomly drawn compounds.
Each entry gets false (0) if its inhibition stays under 20%, and true (1) if its inhibition is 20% or above.

These recorded examples may help you get a feel for the data.
O=C(C(NS(=O)(=O)c1cccc2nsnc12)c1ccccc1)N1CCN(c2ccccc2)CC1 (stereo not given) :: false (0)
C=CC1=C(C(=O)O)N2C(=O)[C@@H](NC(=O)/C(=N/OCC(=O)O)c3csc(N)n3)[C@H]2SC1 :: true (1)
Cn1nccc1C(=O)NC1CCCc2c1cnn2-c1ccccc1F (stereo not given) :: true (1)
Cn1nccc1C(=O)NC1CCCc2c1cnn2-c1ccc(F)cc1F (stereo not given) :: true (1)
CC(Sc1nc2c([nH]c3ccccc32)c(=O)n1C)c1ccccc1 (stereo not given) :: false (0)
Cc1cccc(Nc2nc(NCCO)nc(N3CCCC3)n2)c1 :: false (0)
CCOC(=O)C1CCN(C(=O)C2CCCN(S(=O)(=O)c3ccc(OC)c(Cl)c3)C2)CC1 (stereo not given) :: false (0)
COc1ccc(C(=O)NC2CC(C)(C)Cc3c2cnn3-c2ccccc2C)o1 (stereo not given) :: false (0)
CC1(C)Cc2c(cnn2-c2cccc(F)c2)C(NC(=O)c2cc[n+]([O-])cc2)C1 (stereo not given) :: false (0)

Pending compound:
Query: Entry OCCCNc1nccc(-c2cc(Nc3cccc(Cl)c3)ncn2)n1 : is its inhibition no less than 20%?
Response: true (1)
